System: Falciformispora senegalensis CBS197.79
Test: growth relative to untreated control; higher = less inhibition, active = 20 or less
Settings: 25 µM
Classes used: Y for active, N for inactive

>>> assigned_class("COc1cc(N2CCN(C)CC2)ccc1Nc1nccc(-c2cn(C)c3cnccc23)n1")
"N"
>>> assigned_class("CN1CCC[C@@H]1CCO[C@](C)(c1ccccc1)c1ccc(Cl)cc1")
"Y"
>>> assigned_class("O=C(Nc1cnc2ccccc2c1)c1ccccc1C(=O)c1ccc(F)cc1")
"N"
>>> assigned_class("CCOC(=O)c1c(CSc2ccccc2)n(C)c2cc(Br)c(O)c(CN(C)C)c12")
"N"
>>> assigned_class("CN1[C@H]2CC[C@H]1CC(OC(c1ccccc1)c1ccccc1)C2 (stereo not given in full)")
"N"
>>> assigned_class("COc1cccc(OC2CCN(C(=O)c3cc(C(C)(C)C)nn3Cc3ccccc3)CC2)c1")
"N"
>>> assigned_class("Nc1nc(Nc2ccc3c(c2)CC[C@@H](N2CCCC2)CC3)nn1-c1cc2c(nn1)-c1ccccc1CCC2")
"Y"
>>> assigned_class("CN[C@@H]1[C@H](O)[C@H](NC)[C@H]2O[C@@]3(O)C(=O)C[C@@H](C)O[C@H]3O[C@@H]2[C@H]1O")
"N"
>>> assigned_class("CC(N)CCn1c(Nc2cc(Cl)cc(C(F)(F)F)c2)nc2cnc(NC(C)(C)C)nc21 (stereo not given)")
"Y"
>>> assigned_class("OB(O)O")
"N"
